# credit: patent EP4772193A1

Entries annotated with measured Relative binding activity
Target: T1, recombinant human soluble gpNMB (recombinant human gpNMB-FLAG-His) (human, UniProt Q14956 23-498)
T1 sequence: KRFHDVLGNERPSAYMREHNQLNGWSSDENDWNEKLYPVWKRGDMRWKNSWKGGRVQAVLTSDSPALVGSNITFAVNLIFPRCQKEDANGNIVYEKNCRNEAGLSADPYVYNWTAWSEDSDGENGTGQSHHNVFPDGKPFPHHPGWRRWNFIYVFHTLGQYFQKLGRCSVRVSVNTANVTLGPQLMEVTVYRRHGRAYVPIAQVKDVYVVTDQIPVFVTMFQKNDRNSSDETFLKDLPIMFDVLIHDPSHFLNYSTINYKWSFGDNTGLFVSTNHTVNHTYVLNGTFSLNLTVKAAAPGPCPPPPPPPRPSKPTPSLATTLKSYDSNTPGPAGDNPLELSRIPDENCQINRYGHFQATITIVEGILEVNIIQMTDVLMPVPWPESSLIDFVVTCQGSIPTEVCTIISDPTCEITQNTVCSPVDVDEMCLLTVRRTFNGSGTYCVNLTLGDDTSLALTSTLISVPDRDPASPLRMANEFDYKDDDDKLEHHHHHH
Assay: antigen ELISA, vs hGPN06-1_H1L1
MEASURED ENDPOINT: Relative binding activity

[[record]]
binder = "hGPN06-1_H1L1 (antibody, V domains shown, humanized; also called humanized anti-gpNMB antibody H1L1) VH: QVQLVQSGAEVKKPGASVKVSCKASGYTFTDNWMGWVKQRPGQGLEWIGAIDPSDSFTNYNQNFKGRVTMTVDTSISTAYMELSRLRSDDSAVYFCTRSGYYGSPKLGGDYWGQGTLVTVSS VL: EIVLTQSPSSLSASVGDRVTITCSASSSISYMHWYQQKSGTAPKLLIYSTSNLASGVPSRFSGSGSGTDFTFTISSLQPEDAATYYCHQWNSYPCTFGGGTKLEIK"
measured_endpoint = "Relative binding activity"
result_value = 1

[[record]]
binder = "hGPN06-1_H1L1 VH L107A (antibody, V domains shown) VH: QVQLVQSGAEVKKPGASVKVSCKASGYTFTDNWMGWVKQRPGQGLEWIGAIDPSDSFTNYNQNFKGRVTMTVDTSISTAYMELSRLRSDDSAVYFCTRSGYYGSPKAGGDYWGQGTLVTVSS VL: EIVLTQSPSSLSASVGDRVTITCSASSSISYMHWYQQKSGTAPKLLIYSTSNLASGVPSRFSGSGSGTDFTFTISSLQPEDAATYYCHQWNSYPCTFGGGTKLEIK"
measured_endpoint = "Relative binding activity"
result_value = 0.71

[[record]]
binder = "hGPN06-1_H1L1 VH Y111A (antibody, V domains shown) VH: QVQLVQSGAEVKKPGASVKVSCKASGYTFTDNWMGWVKQRPGQGLEWIGAIDPSDSFTNYNQNFKGRVTMTVDTSISTAYMELSRLRSDDSAVYFCTRSGYYGSPKLGGDAWGQGTLVTVSS VL: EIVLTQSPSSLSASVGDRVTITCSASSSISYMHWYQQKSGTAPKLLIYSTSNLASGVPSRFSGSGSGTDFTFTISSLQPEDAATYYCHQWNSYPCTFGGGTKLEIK"
measured_endpoint = "Relative binding activity"
result_value = 0.99

